Target: T1, human LAG-3 overexpressed on HEK293 cells (human, UniProt P18627 23-525)
T1 construct: whole, on cells; also called 293-hLAG-3 cells; hLAG-3 on the cell surface
T1 sequence (looked up): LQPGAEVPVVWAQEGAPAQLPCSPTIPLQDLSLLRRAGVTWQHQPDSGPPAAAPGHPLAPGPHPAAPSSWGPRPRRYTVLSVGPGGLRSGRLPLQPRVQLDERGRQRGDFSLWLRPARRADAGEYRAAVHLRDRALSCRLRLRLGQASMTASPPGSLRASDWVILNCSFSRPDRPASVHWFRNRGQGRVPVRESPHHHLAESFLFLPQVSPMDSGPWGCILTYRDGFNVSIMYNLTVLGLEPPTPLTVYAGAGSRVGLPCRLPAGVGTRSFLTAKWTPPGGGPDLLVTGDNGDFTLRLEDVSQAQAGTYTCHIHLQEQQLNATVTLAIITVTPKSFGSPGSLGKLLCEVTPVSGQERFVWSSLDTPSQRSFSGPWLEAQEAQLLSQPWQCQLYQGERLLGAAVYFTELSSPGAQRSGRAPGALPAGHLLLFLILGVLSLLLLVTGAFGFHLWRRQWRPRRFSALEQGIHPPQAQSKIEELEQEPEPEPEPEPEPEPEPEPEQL
Test: flow cytometry on 293-hLAG-3 cells, MFI curve
ASSAY READOUT: pEC50
pEC50 here: minus log base 10 of the concentration, concentration in moles per litre.

input: So what's the measured pEC50 for this one? ADI-31851 (antibody, human IgG4 S228P, kappa, F234A L235A, V domains shown, IgG4 heavy chain constant region with kappa light chain; expressed in HEK293 cells) VH: QLQLQESGPGLVKPSETLSLTCTVSGGSISSPDYYWGWIRQPPGKGLEWIGSIVYSGYTYYNPSLKSRVTISVDTSKNQFSLKLSSVTAADTAVYYCARVRTWDQSFDIWGQGTMVTVSS VL: DIQMTQSPSSLSASVGDRVTITCQAGQDISNYLNWYQQKPGKAPKLLIYDASNLETGVPSRFSGSGSGTDFTFTISSLQPEDIATYYCQQVLELPPWTFGGGTKVEIKR
output: 9.30

input: Consider the binder ADI-31853 (antibody, human IgG4 S228P, kappa, F234A L235A, V domains shown, IgG4 heavy chain constant region with kappa light chain; expressed in HEK293 cells) VH: QLQLQESGPGLVKPSETLSLTCTVSGGSIYSESYYWGWIRQPPGKGLEWIGSIVYSGYTYYNPSLKSRVTISVDTSKNQFSLKLSSVTAADTAVYYCARVRTWDAAFDIWGQGTMVTVSS VL: DIQMTQSPSSLSASVGDRVTITCQASQDISNYLNWYQQKPGKAPKLLIYDASNLETGVPSRFSGSGSGTDFTFTISSLQPEDIATYYCQQVLELPPWTFGGGTKVEIKR and give its measured pEC50.
output: 9.36

input: Could you share which pEC50 value was measured for BAP050 (antibody, V domains shown) VH: QIQLVQSGPELKKPGETVKISCKASGFTLTNYGMNWVRQTPGKGLKWMGWINTDTGEPTYADDFKGRFAFSLETSASTASLQINNLKNADTATYFCARNPPYYYGTNNAEAMDYWGQGTAVTVSS VL: DIQMTQTTSSLSASLGDRVTISCSSSQDISNYLNWYQQKPDGTVKVLIYYTSTLHLGVPSRFSGSGSGTDYSLTISNLELEDIATYYCQQYYNLPWTFGGGTKLEIK ?
output: 8.85

input: So what's the measured pEC50 for this one? ADI-26869 (antibody, human IgG4 S228P, kappa, F234A L235A, V domains shown, Fully human antibody from yeast display; IgG4 heavy chain constant region with kappa light chain; expressed in HEK293 cells; also called anti-human LAG-3 antibody ADI-26869; parent antibody) VH: QLQLQESGPGLVKPSETLSLTCTVSGGSISSSDYYWGWIRQPPGKGLEWIGSIYYSGSTYYNPSLKSRVTISVDTSKNQFSLKLSSVTAADTAVYYCARVRTWDAAFDIWGQGTMVTVSS VL: DIQMTQSPSSLSASVGDRVTITCQASQDISNYLNWYQQKPGKAPKLLIYDASNLETGVPSRFSGSGSGTDFTFTISSLQPEDIATYYCQQVHALPPWTFGGGTKVEIKR
output: 8.54
